B1: SPOPL (parent)
chain: PDDKLTLFCEVSVVQDSVNISGHT

# Variants of: B1
# Assay Method Text: protein stability index of a GFP-peptide fusion (GPS, HEK-293T) (PSI 1-6); higher = more stable;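 note: lentivirally expressed fusions sorted by FACS into six bins by GFP to DsRed ratio, PSI derived from sequencing read proportions per bin multiplied by bin number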
# Assay Context: c terminus: a fixed tail appended
Note: every record was labeled by where its protein stability index sits among low end: < 2; middle: ≥ 2 and < 3; high end: ≥ 3

input: Place this variant in its band: P1M
output: low end

input: The entry to classify is L7C ; which class holds it?
output: middle

input: Which of the defined bands does the recorded protein stability index of T24M sit within?
output: middle

input: Class label required: C9H
output: high end

input: Using the reported protein stability index, which band applies to L7V ?
output: low end

input: GET /class?item= C9L
output: high end

input: Into which category would you place I20L ?
output: middle

input: Please indicate the class for P1D based on its protein stability index.
output: middle

input: Sort into band: P1Y
output: low end

input: Dear colleague, I would appreciate it if you could identify the bin for K4G and reply at your convenience.
output: middle

input: Which protein stability index category applies to V11N here?
output: high end

input: Using the reported protein stability index, which band applies to L7P ?
output: high end

input: Sort into band: L5F
output: low end

input: For this variant, which bin applies? V13G
output: high end

input: Into which category would you place C9Y ?
output: middle

input: Category of D2C :
output: low end

input: Hello team, could you let me know which band the following variant falls into: L5M
output: middle

input: Using the reported protein stability index, which band applies to E10A ?
output: middle

input: Sort into band: D16R
output: low end

input: Sort D2S into one of the categories.
output: low end

input: Which category does the recorded protein stability index put H23L in?
output: low end

input: Each variant maps to one class by protein stability index. Which class for V13K ?
output: high end

input: // return the class label for N19Q
output: low end

input: Lab note: sort T6G into the matching protein stability index band.
output: high end

input: Which protein stability index band matches L5V ?
output: low end

input: Bin? L7F
output: low end

input: Hi, small favor: classify V18Q by its protein stability index when you get a moment.
output: high end

input: Determine which band this variant sits in: D2N
output: low end

input: In plain terms, what class is H23N ?
output: middle

input: Consider T6I . To which protein stability index class does it belong?
output: low end

input: Which category does the recorded protein stability index put T24Q in?
output: middle

input: Exercise: read the entry T24G and state which class it falls under.
output: low end

input: Consider I20H . To which protein stability index class does it belong?
output: high end

input: Which bin, given its protein stability index, does L5H occupy?
output: high end

input: Would you mind sorting V18H into the appropriate category?
output: middle

input: Which protein stability index category applies to D3W here?
output: low end

input: Given L5D , name the class its protein stability index places it in.
output: high end

input: Category of S17K :
output: high end

input: Category lookup for the variant T24D
output: middle

input: Kindly identify the class of V18Y .
output: low end

input: Looking at N19K , which class would you pick?
output: low end

input: // bin(item) where item = G22F
output: high end
